Procedure Summary: physchem
Experimental Conditions: pH 7
Please use Fulfilled whenever pKa is not below 7, and Not fulfilled whenever it is.

CN1CCN(c2nc(NC3CCN(Cc4ccccc4)CC3)c3sccc3n2)CC1 ... Not fulfilled
COc1cc2nc(N3CCCN(C)CC3)cc(NC3CCN(Cc4ccccc4)CC3)c2cc1OC ... Fulfilled
c1ccc(CN2CCC(Nc3nc(N4CCCCC4)nc4cc5c(cc34)OCO5)CC2)cc1 ... Fulfilled
c1ccc(CN2CCC(Nc3nc(N4CCCCC4)nc4ccsc34)CC2)cc1 ... Not fulfilled
COc1cc2nc(N3CCCCC3)nc(NC3CCN(Cc4ccccc4)CC3)c2cc1OC ... Fulfilled

In the following, a different compound is considered.
Does c1ccc(CN2CCC(Nc3nc(N4CCCCC4)nc4nc[nH]c34)CC2)cc1 have a reported pKa of at least 7?
Not fulfilled
